Test system: Escherichia coli TOP10
Assay: shrunken log2 fold change of peptide-encoding DNA abundance (4.5 h post-induction vs induction); higher = less antimicrobial activity (less host growth inhibition)
Conditions: time post-induction: 4.5 h; library: site-saturation at positions 5, 18, 19, 20
outcome measure: shrunken log2 fold change
One number for each entry.

RRIRFRPPRLPRPRPRPVDPPRP ... -0.228

Field: shrunken log2 fold change. Fill in for each record below.
1. RRIRIRPPRLPRPRPRPALDPRP
2. RRIRARPPRLPRPRPRPTMRPRP
3. RRIRMRPPRLPRPRPRPYVTPRP
4. RRIRIRPPRLPRPRPRPACSPRP

-- reply
1.45
0.976
-0.298
-0.129

List reported shrunken log2 fold change for each of these sequences:
1. RRIRNRPPRLPRPRPRPGDYPRP
2. RRIRNRPPRLPRPRPRPTVKPRP
3. RRIRWRPPRLPRPRPRPGCPPRP
4. RRIRGRPPRLPRPRPRPPTTPRP
5. RRIRNRPPRLPRPRPRPLIFPRP
6. RRIRGRPPRLPRPRPRPDWCPRP
7. RRIRMRPPRLPRPRPRPEKEPRP
8. RRIRMRPPRLPRPRPRPYNQPRP

-- reply
[0.0582, -0.00906, 0.0461, 0.91, 1.39, 1.37, -0.0085, -0.486]

// each sequence listed below needs its shrunken log2 fold change
1. RRIRCRPPRLPRPRPRPCCYPRP
2. RRIRKRPPRLPRPRPRPDCHPRP

-- reply
1: -0.696; 2: 0.233

====

Test system: Escherichia coli TOP10
Test: shrunken log2 fold change of peptide-encoding DNA abundance (4.5 h post-induction vs induction); higher = less antimicrobial activity (less host growth inhibition)
Conditions: time post-induction: 4.5 h; library: site-saturation at positions 5, 18, 19, 20
outcome measure: shrunken log2 fold change
Give bare numbers.

Would you mind listing shrunken log2 fold change for each of the following sequences?
1. RRIRQRPPRLPRPRPRPWASPRP
2. RRIRKRPPRLPRPRPRPIWSPRP
3. RRIRWRPPRLPRPRPRPALNPRP
4. RRIRWRPPRLPRPRPRPEMYPRP

-- reply
1: -0.017; 2: -0.0718; 3: 0.801; 4: 0.144

For the 5 sequences below, give their shrunken log2 fold change values.
1. RRIRYRPPRLPRPRPRPNPEPRP
2. RRIRFRPPRLPRPRPRPTMNPRP
3. RRIRERPPRLPRPRPRPITSPRP
4. RRIRDRPPRLPRPRPRPQRAPRP
5. RRIRYRPPRLPRPRPRPKCTPRP

-- reply
1: -0.0105; 2: -0.511; 3: 0.0102; 4: 0.0568; 5: -0.0162

====

System: Escherichia coli TOP10;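 also: peptides expressed intracellularly from a pBAD plasmid library in pooled LB shake-flask culture, induced with 0.3% L-arabinose, DNA abundance read by NGS, three biological replicates, DESeq2 with apeglm shrinkage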
Assay: shrunken log2 fold change of peptide-encoding DNA abundance (4.5 h post-induction vs induction); higher = less antimicrobial activity (less host growth inhibition)
Settings: time post-induction: 4.5 h; library: site-saturation at positions 5, 18, 19, 20
Please note: rule met applies when shrunken log2 fold change is -0.2 or greater, and rule not met applies otherwise.

Example cases with answers are listed next.
RRIRQRPPRLPRPRPRPMISPRP ... rule met
RRIRMRPPRLPRPRPRPGHLPRP ... rule met
RRIRIRPPRLPRPRPRPLYKPRP ... rule not met
RRIRLRPPRLPRPRPRPCVRPRP ... rule met
RRIRWRPPRLPRPRPRPHFVPRP ... rule not met
RRIRTRPPRLPRPRPRPATDPRP ... rule met
RRIRTRPPRLPRPRPRPIRAPRP ... rule met
RRIRERPPRLPRPRPRPNCMPRP ... rule not met

Now let's try a different one.
-- ask Record "RRIRQRPPRLPRPRPRPSWIPRP" ; criterion: shrunken log2 fold change no lower than -0.2. Met?
-- reply rule not met
